Tested on: U-937
assay-summary: Cytotoxicity against human U937 cells assessed as reduction in cell viability at 10 uM measured after 3 days by CCK8 assay
Assay type: functional, cell-based
Active and inactive are the calls of the source. No cut-off for these calls is given here.
Pick one: active, inactive

Reference set (8 entries):
> print(dat)
                                test.smiles     group
1  O=C(/C=C/c1cccnc1)c1ccn2cc(-c3ccccc3)ncc12    active
2  COc1ccc(/C=C/C(=O)c2ccn3cc(-c4ccccc4)ncc23)cc1    active
3  O=C(/C=C/c1ccccn1)c1ccn2cc(-c3ccccc3)ncc12    active
4  COc1ccc(OC)c(/C=C/C(=O)c2ccn3cc(-c4ccccc4)ncc23)c1  inactive
5  COc1cccc(/C=C/C(=O)c2ccn3cc(-c4ccccc4)ncc23)c1    active
6  COc1ccccc1/C=C/C(=O)c1ccn2cc(-c3ccccc3)ncc12    active
7  O=C(/C=C/c1ccccc1Cl)c1ccn2cc(-c3ccccc3)ncc12  inactive
8  O=C(/C=C/c1ccncc1)c1ccn2cc(-c3ccccc3)ncc12    active

Assay outcome for O=C(/C=C/c1ccccc1F)c1ccn2cc(-c3ccccc3)ncc12 : what was it? inactive

Assay outcome for Nc1ccn([C@@H]2O[C@H](CO)[C@@H](O)[C@@H]2O)c(=O)n1 : what was it? active

Assay outcome for O=C(/C=C/c1ccccc1Br)c1ccn2cc(-c3ccccc3)ncc12 : what was it? inactive

Assay outcome for O=C(/C=C/c1ccccc1I)c1ccn2cc(-c3ccccc3)ncc12 : what was it? inactive

Source listed as ChEMBL document CHEMBL4339205.
